target: canine CD3 on canine T cells (canine PBMC) (canine, UniProt P27597 22-202); experiment: cell-based or functional assay
Sequence (P27597 22-202 limits assumed, chain 1 of 3): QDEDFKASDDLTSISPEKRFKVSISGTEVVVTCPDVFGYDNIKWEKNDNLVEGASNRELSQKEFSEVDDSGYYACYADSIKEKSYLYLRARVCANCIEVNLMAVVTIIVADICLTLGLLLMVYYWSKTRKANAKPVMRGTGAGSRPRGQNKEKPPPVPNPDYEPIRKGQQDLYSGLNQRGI
Sequence (chain, as listed by the source limits assumed, chain 2 of 3): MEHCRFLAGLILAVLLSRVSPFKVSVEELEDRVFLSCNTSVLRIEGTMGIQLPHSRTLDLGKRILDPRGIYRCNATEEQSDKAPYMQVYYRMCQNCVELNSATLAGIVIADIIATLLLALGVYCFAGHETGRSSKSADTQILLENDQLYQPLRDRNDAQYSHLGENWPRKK
Sequence (chain, as listed by the source limits assumed, chain 3 of 3): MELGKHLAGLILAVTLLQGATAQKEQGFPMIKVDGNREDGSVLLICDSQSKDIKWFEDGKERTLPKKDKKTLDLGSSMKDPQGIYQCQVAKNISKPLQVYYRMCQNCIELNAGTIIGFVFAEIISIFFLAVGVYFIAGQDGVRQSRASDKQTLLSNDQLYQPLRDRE
Would you please tag the item label 1 when its CD25 Activation, Day 9, IS is 10 or above, and label 0 when it is below?

binder	classification
PMX159 (monospecific anti-canine CD3, canine IgG-B effector function deficient Fc) (antibody, V domains shown) VH: ELTLQESGPGLVKPSQTLSLTCVVSGGSVTRSYYWNWIRQRPGRGLEWMGYWTGSTIYNPTFQGRISITADTAKSQFSLQLRSMTTEDTAMYFCAREGGKSLGAFAYWGQGTLVTVSS VL: SYVLTQLPSKNVTLKQPAHITCGGDKIGSKNVHWYQQKLGQAPVMIIYYDSSRPTGIPERFSGANSGNTATLTISGALAEDEADYYCQVWDSSAKAAVFGGGTHLTVL	label 0
PMX191 (monospecific anti-canine CD3, canine IgG-B effector function deficient Fc) (antibody, V domains shown) VH: EVQLVESGGDLVKPAGSLRLSCVASGFTFSDYSMSWVRQGPEKGLQLVAGMNSDGSTTYYTDAVRGRFTISRDNAKNTMYLQMNSLRDEDTAIYYCAKGAAAPDYWGQGTLVTVSS VL: SYELTQPPSVNVTLRETAHITCGGDRIGSKYVQWIQQIPGQAPVVIIYKDNNRPTGIPERFSGANSGNTATLTISGALAEDEADYYCQVGDNYTWVFGEGTQLTVL	label 1
PMX198 (monospecific anti-canine CD3, canine IgG-B effector function deficient Fc) (antibody, V domains shown) VH: EFTLQESGPGLVKPSQTLSLTCIVSGGSVTSSYYWNWIRQRPGRGLEWMGYWTGSTNYNPAFQGRISITPDTAKNQFSLQLSSMTTEDTAVYYCAREGGSSLQAFGNWGQGTLVTVSS VL: SYVLTQLPSKNVTLKQPAHITCGGDNIGRKSVHWYQQKLGQAPILIIYYDSSRPTGIPERFSGANSGNTATLTISGALAEDEADYYCQVWDSSAKASVFGGGTHLTVL	label 1
